- Study system: Estrogen receptor (Homo sapiens) (UniProt P03372)
- Sequence (P03372 whole entry, looked up): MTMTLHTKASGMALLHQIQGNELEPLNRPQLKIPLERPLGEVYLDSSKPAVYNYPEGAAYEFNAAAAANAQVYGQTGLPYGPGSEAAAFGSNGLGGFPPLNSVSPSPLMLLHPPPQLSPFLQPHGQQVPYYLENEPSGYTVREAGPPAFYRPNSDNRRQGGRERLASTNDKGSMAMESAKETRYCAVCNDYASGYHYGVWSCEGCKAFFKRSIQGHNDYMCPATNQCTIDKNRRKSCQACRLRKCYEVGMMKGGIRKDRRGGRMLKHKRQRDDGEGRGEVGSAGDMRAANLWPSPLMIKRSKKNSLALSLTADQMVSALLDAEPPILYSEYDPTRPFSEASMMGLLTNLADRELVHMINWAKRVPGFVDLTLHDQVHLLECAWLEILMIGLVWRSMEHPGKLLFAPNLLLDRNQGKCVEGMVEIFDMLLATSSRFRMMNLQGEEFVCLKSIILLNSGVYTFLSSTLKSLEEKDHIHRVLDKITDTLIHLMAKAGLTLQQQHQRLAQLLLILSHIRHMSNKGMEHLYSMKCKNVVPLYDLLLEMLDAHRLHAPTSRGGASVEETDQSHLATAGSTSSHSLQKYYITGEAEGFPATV
- Experimental details: qHTS assay to identify small molecule agonists of the estrogen receptor alpha (ER-alpha) signaling pathway (AID 743075);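 also: HEK293 GripTite cells with ER-alpha and UAS-driven beta-lactamase reporter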
- Cond: HEK293 ER-alpha-UAS-bla, beta-lactamase FRET ratio, 18 h; series mostly up to 70.1 µM
Calls of active or inactive are those of the source. Calls follow the shape of the full dose curve.
Valid outcomes are listed here; reply with one: active, inactive

These recorded examples may help you get a feel for the data.
O=C(Cc1cccs1)N[C@@H]1C(=O)N2C(C(=O)[O-])=C(C[n+]3ccccc3)CS[C@H]12 | inactive
OC[C@H]1O[C@@H](O[C@H]2[C@H](O)[C@@H](O)[C@H](O)O[C@@H]2CO)[C@H](O)[C@@H](O)[C@@H]1O | inactive
CC(=O)O[C@H]1CC[C@@]2(C)C(=CC[C@H]3[C@@H]4CC[C@H](C(C)=O)[C@@]4(C)CC[C@@H]32)C1 | active
CN1CCN(CCCN2c3ccccc3Sc3ccccc32)CC1 | inactive

Test call for this compound, please: Cc1cc(-n2c(=O)[nH]c(=O)n(C)c2=O)ccc1Oc1ccc(S(=O)(=O)C(F)(F)F)cc1 inactive

Test call for this compound, please: CN1CC(O)c2cc(N=NC(N)=O)c(O)cc21 (centres undefined) inactive
